Source: patent US20260248936A1

assay: Rat plasma stability; type: in vitro ADME; details: Method 3 (rat plasma), 37° C., read-out: Plasma stability t1/2
parameter: half-life at 300 µM

For reference, reported half-life at 300 µM for C#CCC(OC(=O)N(C)[C@H](C(=O)N[C@H](C(=O)N(C)[C@@H](C(C)CC)[C@@H](CC(=O)N1CCC[C@H]1[C@H](OC)[C@@H](C)C(=O)N[C@H](C)[C@@H](O)c1ccccc1)OC)C(C)C)C(C)C)c1ccc(O[C@@H]2O[C@H](C(=O)O)[C@H](O)[C@H](O)[C@H]2O)c2cc(CCC(=O)O)[se]c12 (stereo partly shown) stands at > 168 h

----------
test: Mouse plasma stability; format: in vitro ADME; details: Method 1 (mouse plasma), 37° C., read-out: Plasma stability t1/2
Numbered stars: 1 amine (or outer) side, 2 acyl side, 3 side chain; on linkers, the order of the positions; unused ones are H or OH. Square brackets hold non-standard residues; d marks the D form. Peptide text beside a SMILES is read from it. * marks the point of attachment. ξ: configuration not given here. X1 = O=C(O)CCc1cc2c(O[C@@H]3O[C@H](CO)[C@H](O)[C@H](O)[C@H]3O)ccc(COC(=O)*)c2s1; Dil(5ξ) = CCC(C)[C@@H]([C@@H](CC(=O)[*:2])OC)N(C)[*:1]; Dolaproine = CO[C@@H]([C@@H]1CCCN1)[C@@H](C)C(=O)O; NMeV = CN[C@H](C(=O)O)C(C)C; ξF = NC(Cc1ccccc1)C(=O)O
The entries below come with measured half-life at 300 µM values attached.

Consider the worked cases shown below.
C#CCC(OC(=O)N(C)[C@H](C(=O)N[C@H](C(=O)N(C)[C@@H](C(C)CC)[C@@H](CC(=O)N1CCC[C@H]1[C@H](OC)[C@@H](C)C(=O)N[C@H](C)[C@@H](O)c1ccccc1)OC)C(C)C)C(C)C)c1ccc(O[C@@H]2O[C@H](C(=O)O)[C@H](O)[C@H](O)[C@H]2O)c2cc(CCC(=O)O)[se]c12 (stereo partly drawn) ... > 168 h
CCC(C)[C@@H]([C@@H](CC(=O)N1CCC[C@H]1[C@H](OC)[C@@H](C)C(=O)NC(Cc1ccccc1)C(=O)O)OC)N(C)C(=O)[C@@H](NC(=O)[C@H](C(C)C)N(C)C(=O)OCc1ccc(O[C@@H]2O[C@H](CO)[C@H](O)[C@H](O)[C@H]2O)c2cc(CCC(=O)O)sc12)C(C)C (stereo partly drawn) [Compound A-5] (X1-[NMeV]V[Dil(5ξ)][Dolaproine][ξF]-OH) ... > 168 h

Could you now consider this next compound?
half-life at 300 µM reading for C#CCC(OC(=O)N(C)[C@H](C(=O)N[C@H](C(=O)N(C)[C@@H](C(C)CC)[C@@H](CC(=O)N1CCC[C@H]1[C@H](OC)[C@@H](C)C(=O)NC(Cc1ccccc1)C(=O)O)OC)C(C)C)C(C)C)c1ccc(O[C@@H]2O[C@H](CO)[C@H](O)[C@H](O)[C@H]2O)c2cc(COC(=O)N(C)[C@H](C(=O)N[C@H](C(=O)N(C)[C@@H](C(C)CC)[C@@H](CC(=O)N3CCC[C@H]3[C@H](OC)[C@@H](C)C(=O)NC(Cc3ccccc3)C(=O)O)OC)C(C)C)C(C)C)oc12 (stereo partly drawn) : > 168 h

----------
Below, each entry is listed with its recorded half-life at 100 µM.
assay: Chemical stability in PBS buffer solution (pH 7.4); format: physicochemical; conditions: PBS buffer solution pH 7.4, 37° C., HPLC; read-out: Chemical stability t1/2

C#CCC(OC(=O)N(C)[C@H](C(=O)N[C@H](C(=O)N(C)[C@@H](C(C)CC)[C@@H](CC(=O)N1CCC[C@H]1[C@H](OC)[C@@H](C)C(=O)NC(Cc1ccccc1)C(=O)O)OC)C(C)C)C(C)C)c1ccc(O[C@@H]2O[C@H](CO)[C@H](O)[C@H](O)[C@H]2O)c2cc(COC(=O)N(C)[C@H](C(=O)N[C@H](C(=O)N(C)[C@@H](C(C)CC)[C@@H](CC(=O)N3CCC[C@H]3[C@H](OC)[C@@H](C)C(=O)NC(Cc3ccccc3)C(=O)O)OC)C(C)C)C(C)C)oc12 (stereo partly drawn) ... > 168 h
CCC(C)[C@@H]([C@@H](CC(=O)N1CCC[C@H]1[C@H](OC)[C@@H](C)C(=O)NC(Cc1ccccc1)C(=O)O)OC)N(C)C(=O)[C@@H](NC(=O)[C@H](C(C)C)N(C)C(=O)OCc1ccc(O[C@@H]2O[C@H](CO)[C@H](O)[C@H](O)[C@H]2O)c2cc(Cn3cc(COCCOCCOCCOC)nn3)sc12)C(C)C (stereo partly drawn) ... > 168 h

The recorded half-life at 100 µM for C#CCC(OC(=O)N(C)[C@H](C(=O)N[C@H](C(=O)N(C)[C@@H](C(C)CC)[C@@H](CC(=O)N1CCC[C@H]1[C@H](OC)[C@@H](C)C(=O)NC(Cc1ccccc1)C(=O)O)OC)C(C)C)C(C)C)c1ccc(O[C@@H]2O[C@H](CO)[C@H](O)[C@H](O)[C@H]2O)c2cc(CCCC(=O)O)oc12 (stereo partly drawn) is > 168 h

----------
test: Chemical stability in PBS buffer solution (pH 7.4); format: physicochemical; conditions: PBS buffer solution pH 7.4, 37° C., HPLC; read-out: Chemical stability t1/2
parameter: half-life at 100 µM

# compound C#CCC(OC(=O)N(C)[C@H](C(=O)N[C@H](C(=O)N(C)[C@@H](C(C)CC)[C@@H](CC(=O)N1CCC[C@H]1[C@H](OC)[C@@H](C)C(=O)NC(Cc1ccccc1)C(=O)O)OC)C(C)C)C(C)C)c1ccc(O[C@@H]2O[C@H](CO)[C@H](O)[C@H](O)[C@H]2O)c2cc(CCC(=O)O)sc12 (stereo partly shown) ; its half-life at 100 µM = > 168 h

----------
assay: Chemical stability in PBS buffer solution (pH 7.4); format: physicochemical; details: PBS buffer solution pH 7.4, 37° C., HPLC; read-out: Chemical stability t1/2
Numbered stars: 1 amine (or outer) side, 2 acyl side, 3 side chain; on linkers, the order of the positions; unused ones are H or OH. Square brackets hold non-standard residues; d marks the D form. Peptide text beside a SMILES is read from it. * marks the point of attachment. ξ: configuration not given here. X3 = C#CCC(OC(=O)*)c1ccc(O[C@@H]2O[C@H](CO)[C@H](O)[C@H](O)[C@H]2O)c2cc(C(=O)O)sc12; X1 = O=C(O)CCc1cc2c(O[C@@H]3O[C@H](CO)[C@H](O)[C@H](O)[C@H]3O)ccc(COC(=O)*)c2s1; Dil(5ξ) = CCC(C)[C@@H]([C@@H](CC(=O)[*:2])OC)N(C)[*:1]; Dolaproine = CO[C@@H]([C@@H]1CCCN1)[C@@H](C)C(=O)O; NMeV = CN[C@H](C(=O)O)C(C)C; ξF = NC(Cc1ccccc1)C(=O)O
# reported half-life at 100 µM; entries follow

CCC(C)[C@@H]([C@@H](CC(=O)N1CCC[C@H]1[C@H](OC)[C@@H](C)C(=O)NC(Cc1ccccc1)C(=O)O)OC)N(C)C(=O)[C@@H](NC(=O)[C@H](C(C)C)N(C)C(=O)OCc1ccc(O[C@@H]2O[C@H](CO)[C@H](O)[C@H](O)[C@H]2O)c2cc(CCC(=O)O)sc12)C(C)C (stereo partly drawn) [Compound A-5] (X1-[NMeV]V[Dil(5ξ)][Dolaproine][ξF]-OH) ... > 168 h
C#CCC(OC(=O)N(C)[C@H](C(=O)N[C@H](C(=O)N(C)[C@@H](C(C)CC)[C@@H](CC(=O)N1CCC[C@H]1[C@H](OC)[C@@H](C)C(=O)N[C@H](C)[C@@H](O)c1ccccc1)OC)C(C)C)C(C)C)c1ccc(O[C@@H]2O[C@H](C(=O)O)[C@H](O)[C@H](O)[C@H]2O)c2cc(CCC(=O)O)[se]c12 (stereo partly drawn) [Compound A-36] ... > 168 h

Turning to the following compound.
Form field half-life at 100 µM, entry C#CCC(OC(=O)N(C)[C@H](C(=O)N[C@H](C(=O)N(C)[C@@H](C(C)CC)[C@@H](CC(=O)N1CCC[C@H]1[C@H](OC)[C@@H](C)C(=O)NC(Cc1ccccc1)C(=O)O)OC)C(C)C)C(C)C)c1ccc(O[C@@H]2O[C@H](CO)[C@H](O)[C@H](O)[C@H]2O)c2cc(C(=O)O)sc12 (stereo partly drawn) [Compound A-11] (X3-[NMeV]V[Dil(5ξ)][Dolaproine][ξF]-OH) : > 168 h

----------
assay: Beagle dog plasma stability; assay type: in vitro ADME; details: Method 4 (beagle dog plasma), 37° C., read-out: Plasma stability t1/2
parameter: half-life at 300 µM

get_value(item= C#CCC(OC(=O)N(C)[C@H](C(=O)N[C@H](C(=O)N(C)[C@@H](C(C)CC)[C@@H](CC(=O)N1CCC[C@H]1[C@H](OC)[C@@H](C)C(=O)N[C@H](C)[C@@H](O)c1ccccc1)OC)C(C)C)C(C)C)c1ccc(O[C@@H]2O[C@H](C(=O)O)[C@H](O)[C@H](O)[C@H]2O)c2cc(CCC(=O)O)[se]c12 (stereo partly shown) , readout=half-life at 300 µM) returns > 168 h
